Task for the reader: assign each of the following compounds its reported Secondary screening Viable cell number (%).
- Tested on: immortalized Fuchs' endothelial corneal dystrophy cells (iFECD)
- Test Description: Cell viability (CellTiter-Glo Luminescent Cell Viability Assay) in iFECD, secondary screening
- Format: cell-based, human
- Settings: agent 10 μM, absence of TGF-β, 28 hours, n=2, vs candidate compound non-contacted group
- Procedure: In one embodiment, step (b) comprises measurement of cell viability. […] The cell viability is measured in the absence of TGF-β. […] Cell viability is calculated as an indicator of toxicity with n=2 in CellTiter-Glo® Luminescent Cell Viability Assay (Promega catalogue number: G7570). The cell viability was measured after culturing the cells in Dulbecco's Modified Eagle Medium (DMEM)+2% fetal bovine serum (FBS)+1% penicillin/streptomycin (P/S) for 28 hours. […]
Output should be the measured figure followed by the unit it is expressed in.

// below: answered compounds
COc1cc(NC(C)CCCN)c2ncccc2c1 (stereo not drawn) [Primaquine Phosphate] : 99.7%
CN(C)[C@@H]1C(O)=C(C(N)=O)C(=O)[C@@]2(O)C(O)=C3C(=O)c4c(O)cccc4[C@@](C)(O)[C@H]3C[C@@H]12 : 99.31%

Pending compound:
Item COc1c(C)c2c(c(O)c1C/C=C(\C)CCC(=O)OCCN1CCOCC1)C(=O)OC2 [Mycophenolate Mofetil] ; assay system immortalized Fuchs' endothelial corneal dystrophy cells (iFECD); Secondary screening Viable cell number (%) reported as 67.7%
